measurement.description: Polarity: interfacial tension towards water
Format: physicochemical
condition.context: moderately polar lipids, between about 20 and about 30 mN/m
metric.name: Polarity (interfacial tension towards water) (mN/m)
Note: unit mN/m is implicit; provide only the numeric part.

CC(C)CCCCCCCOC(=O)C(C)(C)C [DUB VCI 10, Isodecyl neopentanoate]
29.9

Input line: // query Polarity (interfacial tension towards water) value for entry CCCCCCCC(=O)OCCCCCCCC(C)C [Dermol 108, Isodecyl octanoate]
Output line: 29.6

Input line: Give the measured Polarity (interfacial tension towards water) of CCCCCCCCCCCCCC(=O)OCC(CCCCCCCC)CCCCCCCCCC (stereo not shown) [M.O.D., Octyldodecyl myristate] .
Output line: 22.1

Input line: Name the reported Polarity (interfacial tension towards water) value associated with the molecule CCCCCCCCCC(=O)OCCCC(C)C [Dermol IHD, Isohexyl decanoate]
Output line: 29.7
